conditions: in isopropanol, 318.1 K
metric-name: solubility (mole fraction)
The reply should be a number, written without any unit.

*Q* For the compound c1ccc(-c2ccc(C(c3ccccc3)n3ccnc3)cc2)cc1 (stereo unspecified) , what solubility (mole fraction) is on record?
*A* 0.00802

----------
conditions: in acetonitrile, 298.14 K
metric-name: solubility (mole fraction)
Just the number, please, no unit attached.

*Q* Sample c1ccc(-c2ccc(C(c3ccccc3)n3ccnc3)cc2)cc1 (stereo unspecified) — what was its solubility (mole fraction)?
*A* 0.00221

----------
settings: in methyl acetate, 293.15 K
metric-name: solubility (mole fraction)
Form: value (number only, do not type unit).

*Q* Tell me the measured solubility (mole fraction) of c1ccc(-c2ccc(C(c3ccccc3)n3ccnc3)cc2)cc1 (stereo unspecified) , please.
*A* 0.00413
